Source of measurements: paper PMC10397247

Target: T1, 4H3165-AA
T1 chain: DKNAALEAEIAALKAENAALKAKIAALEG
Assay: two-hybrid library CCmax;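 also: natural log of median RNA to DNA barcode read ratio; higher means stronger binding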
Conditions: mean of both orientations
MEASUREMENT KIND: interaction score

binder="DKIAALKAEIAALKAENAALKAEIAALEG [4H2649-AA]" measurement_kind="interaction score" obs_value=1.07
binder="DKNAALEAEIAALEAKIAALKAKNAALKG [4H3120-AA]" measurement_kind="interaction score" obs_value=-1.33
binder="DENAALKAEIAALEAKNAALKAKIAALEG [4H1597-AA]" measurement_kind="interaction score" obs_value=-0.486
binder="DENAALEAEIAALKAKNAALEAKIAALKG [4H1142-AA]" measurement_kind="interaction score" obs_value=-0.754
